Value source: patent EP4603105A1

// Kd lookup, one value per entry
Biological target: GDP-bound KRAS wild-type protein (Homo sapiens, UniProt P01116)
Sequence (P01116 1-188 isoform P01116-2): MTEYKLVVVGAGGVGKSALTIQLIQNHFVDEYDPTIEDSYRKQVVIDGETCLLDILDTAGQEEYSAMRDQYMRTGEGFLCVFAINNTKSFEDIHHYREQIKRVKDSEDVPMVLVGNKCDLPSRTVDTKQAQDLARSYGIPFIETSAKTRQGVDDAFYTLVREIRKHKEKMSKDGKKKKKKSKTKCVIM
Assay: Binding to KRAS by surface plasmon resonance (SPR), dissociation constant KD
Conditions: 1:1 binding model
testReadout: Kd (nM)

>>> recordednumber("CCC(CC)[C@H]1C(=O)N(C)[C@H](C(=O)N(C)C)CC(=O)N(C)[C@@H](COC)C(=O)N[C@@H]([C@@H](C)CC)C(=O)N2CCC[C@H]2C(=O)N(C)[C@H]2C/C=C\\CCN(C2=O)[C@@H](Cc2ccc(C(F)F)cc2)C(=O)N(C)CC(=O)N[C@@H](CCc2ccc(Cl)c(Cl)c2)C(=O)N2C[C@H](OC3CCCC3)C[C@H]2C(=O)NC2(CC(C)(C)C2)C(=O)N1C [PP2652]")
1.5
>>> recordednumber("CCC(CC)[C@H]1C(=O)N(C)[C@H](C(=O)N(C)C)CC(=O)N(C)[C@@H](COC)C(=O)N[C@@H]([C@@H](C)CC)C(=O)N2CCC[C@H]2C(=O)N(C)[C@H]2C/C=C\\CCN(C2=O)[C@@H](Cc2ccc(C(F)(F)F)cc2)C(=O)N(C)CC(=O)N[C@@H](CCc2ccc(Cl)c(Cl)c2)C(=O)N2C[C@H](OC(C)C)C[C@H]2C(=O)NC2(CC(C)(C)C2)C(=O)N1C [PP2639]")
1.1

###

Attribute: pIC50
System: human lung cancer strain NCI-H441
Assay: NCI-H441 cell proliferation inhibitory activity (CellTiter-Glo, 4 days)
Format: cell-based
Conditions: 50% proliferation inhibitory concentration, four days, read-out: NCl-H441 IC50
pIC50: −log10 of the molar value.
testReadout: pIC50

>>> recordednumber("CCO[C@@H]1C[C@H]2C(=O)NC3(CCCC3)C(=O)N(C)[C@@H](C(CC)CC)C(=O)N(C)[C@H](C(=O)N3CCCC3)CC(=O)N(C)[C@@H](COC)C(=O)N[C@@H]([C@@H](C)CC)C(=O)N(C)CC(=O)N(C)[C@H]3C/C=C\\CCN(C3=O)[C@@H](CC3CCC(F)(F)CC3)C(=O)N(C)CC(=O)N[C@@H](CCc3cc(F)c(C(F)(F)F)c(F)c3)C(=O)N2C1 [PP1441]")
7.06
>>> recordednumber("CCO[C@@H]1C[C@H]2C(=O)NC3(CCC3)C(=O)N(C)[C@@H](C3CCCC3)C(=O)N(C)[C@H](C(=O)N3CCCC3)CC(=O)N(C)[C@@H](CC(F)F)C(=O)N[C@@H]([C@@H](C)CC)C(=O)N(C)CC(=O)N(C)[C@H]3C/C=C\\CCN(C3=O)[C@@H](Cc3ccc(C(F)(F)F)cc3)C(=O)N(C)CC(=O)N[C@@H](CCc3cc(F)c(C(F)(F)F)c(F)c3)C(=O)N2C1 [PP1298]")
7.94
>>> recordednumber("CCO[C@@H]1C[C@H]2C(=O)NC3(CCC3)C(=O)N(C)[C@@H](C(CC)CC)C(=O)N(C)[C@H](C(=O)N(C)C)CC(=O)N(C)[C@@H](CC(C)C)C(=O)N[C@@H]([C@@H](C)CC)C(=O)N(C)CC(=O)N(C)[C@H]3C/C=C\\CCN(C3=O)[C@@H](Cc3ccc(C(F)(F)F)cc3)C(=O)N(C)CC(=O)N[C@@H](CCc3cc(F)c(C(F)(F)F)c(F)c3)C(=O)N2C1 [PP1201]")
8.01
>>> recordednumber("CCO[C@@H]1C[C@H]2C(=O)NC3(CCC3)C(=O)N(C)[C@@H](C(CC)CC)C(=O)N(C)[C@H](C(=O)N(C)C)CC(=O)N(C)[C@@H](CC)C(=O)N[C@@H]([C@@H](C)CC)C(=O)N(C)CC(=O)N(C)[C@H]3C/C=C\\CCN(C3=O)[C@@H](Cc3ccc(C(F)(F)F)cc3)C(=O)N(C)CC(=O)N[C@@H](CCc3ccc4sccc4c3)C(=O)N2C1 [PP1223]")
6.93
>>> recordednumber("CCCOC[C@H]1C(=O)N[C@@H]([C@@H](C)CC)C(=O)N(C)CC(=O)N(C)[C@H]2C/C=C\\CCN(C2=O)[C@@H](Cc2ccc(C(F)(F)F)cc2)C(=O)N(C)CC(=O)N[C@@H](CCc2cc(F)c(C(F)(F)F)c(F)c2)C(=O)N2C[C@H](OCC)C[C@H]2C(=O)NC2(CC(C)(C)C2)C(=O)N(C)[C@@H](C2CCCC2)C(=O)N(C)[C@H](C(=O)N(C)C)CC(=O)N1C [PP1398]")
8.64
>>> recordednumber("CCO[C@@H]1C[C@H]2C(=O)NC3(CCC3)C(=O)N(C)[C@@H](C3CCCC3)C(=O)N(C)[C@H](C(=O)N(C)C)CC(=O)N(C)[C@@H](CC)C(=O)N[C@@H]([C@@H](C)CC)C(=O)N(C)CC(=O)N(C)[C@H]3C/C=C\\CCN(C3=O)[C@@H](Cc3ccc(C(F)(F)F)cc3)C(=O)N(C)CC(=O)N[C@@H](CCc3ccc(Cl)c(Cl)c3)C(=O)N2C1 [PP1249]")
7.26
